# EXPERIMENTAL_DETAILS: NCI Yeast Anticancer Drug Screen. Data for the mlh1 rad18 strain (AID 175)
# CONDITION_LABEL: S. cerevisiae mlh1 rad18 strain growth inhibition; at 50.0 µM; hits give high values
About 79,000 compounds went through this panel and 15% of them were active in at least one assay; those are over-represented in the sample as a whole.
Some compounds, each annotated with its measured growth inhibition.
OUTCOME_MEASURE: growth inhibition (%)

INSERT INTO assay_data (compound, unit_info, result_value) VALUES
  ('CC1=NN(C(=O)c2ccc(Cl)cc2)C(=O)/C1=C/c1ccccc1O', '%', -18.8),
  ('CC(=O)NC(C)(C)C1CCC(C)CC1 (configuration not stated)', '%', -38.8),
  ('COc1ccc(Cl)cc1NC(=O)Nc1ccc(F)c([N+](=O)[O-])c1', '%', 23.8),
  ('CCCNc1nc2c(c(=O)n(C)c(=O)n2C)n1C', '%', 7.9),
  ('COC/C=C(\C)CC/C=C(\C)CCC=C(C)C', '%', 2.95),
  ('Cc1cc2c(cc1C)NC(C)CC(=O)N2 (configuration not stated)', '%', 21.7),
  ('ClC/C(=N\N1CCCCCC1)c1ccccc1', '%', 2.2),
  ('CCCCC(C(=O)OCC)[N+](=O)[O-] (configuration not stated)', '%', 16.4),
  ('CCCCCCCCOC(=O)Nc1ccc(S(=O)(=O)CC)cc1', '%', -22.2),
  ('CC(=O)Oc1cc(C(F)(F)F)ccc1C(=O)OC1(C)OC(=O)c2ccc(C(F)(F)F)cc2O1 (configuration not stated)', '%', -16.9),
  ('CN(Cc1c(O)ccc2ccccc12)Cc1c[nH]c2ccccc12', '%', 13.4),
  ('OCc1ccccc1O', '%', 11.2),
  ('O=C(Nc1cccc(C(=O)NCCCO)c1)/C(=C/c1ccccc1)NC(=O)c1ccccc1', '%', 4.35),
  ('COC1OC(CN)C(O)C(O)C1O (configuration not stated)', '%', 43.2),
  ('O=C(c1ccc(C2CCCCC2)cc1)C(C(c1ccccc1)N1CCOCC1)N1CCOCC1 (configuration not stated)', '%', 23.9),
  ('O=C1C2=C(Nc3cc([N+](=O)[O-])ccc3N2)OC1c1ccc(Cl)cc1Cl (configuration not stated)', '%', 13.2),
  ('CCOc1ccc(-c2nc(-c3oc4ccccc4c(=O)c3OC(C)=O)cs2)cc1', '%', 9.4),
  ('CC(=O)c1cccc(N)c1', '%', 3.1),
  ('Cc1ccc(N(C)C)cc1', '%', 6.4),
  ('COc1ccc(/C=C2\C(=O)N(C(=O)Cc3ccccc3)N=C2C)cc1OC', '%', -42.6),
  ('COC(=O)C1=CCS(=O)(=O)C1', '%', -9.5),
  ('CC(=O)OCC(OC(C)=O)C(OC1OC(COC(C)=O)C(OC(C)=O)C(OC(C)=O)C1OC(C)=O)C(OC(C)=O)C(C=O)OC(C)=O (configuration not stated)', '%', -7.95),
  ('C=CCCCCCCCCC(=O)Nc1cc(Cl)ccc1C', '%', -2.7),
  ('ClCCOCc1ccc(Cl)cc1Cl', '%', 19.9),
  ('N#C/C(=C/N1C(=O)CC(=O)NC1=S)c1cccc(Cl)c1', '%', -48.5),
  ('O=C(O)c1nccc2c(O)cccc12', '%', 3.3),
  ('C=CCC(=S)NCCc1c[nH]c2ccccc12', '%', -18.9),
  ('O=C1C2C3CCC(C3)C2C(=O)N1CCO (configuration not stated)', '%', -2.45),
  ('NC(CCC(=O)NC(CSCNC(=O)Nc1ccc(Cl)cc1)C(=O)NCC(=O)O)C(=O)O (configuration not stated)', '%', 15.9),
  ('CC(O)C(=O)N1CCCCC1 (configuration not stated)', '%', -23.1),
  ('Nc1nc(Cc2ccccc2)c(-c2ccccc2)c(-c2nc(N)nc(Cc3ccccc3)c2-c2ccccc2)n1', '%', 7.85),
  ('CCCCNC(=O)/C=C\C(=O)O', '%', 1.45),
  ('CC(=O)CC(C)(C)NNS(=O)(=O)c1ccc(C)cc1', '%', -13.6),
  ('N#Cc1cc([N+](=O)[O-])ccc1NC(=O)/C(=N\NC(=O)c1ccncc1)C(c1cnc2ccc([N+](=O)[O-])cc2n1)[N+](=O)[O-] (configuration not stated)', '%', 2.75),
  ('CCOC(=O)Nc1nc2ccccc2n1CN1CCN(c2ccccc2)CC1', '%', 16.9),
  ('COc1ccc(C(=O)CCC(=O)O)c(C)c1', '%', 5.25),
  ('Cc1ccc(-n2c(C)n[nH]c2=O)cc1', '%', 3.2);

====

# EXPERIMENTAL_DETAILS: NCI Yeast Anticancer Drug Screen. Data for the sgs1 mgt1 strain (AID 161);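 further: 0% = growth of cultures given vehicle only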
# CONDITION_LABEL: S. cerevisiae sgs1 mgt1 strain, at 50.0 µM
This is part of a sample that, as a whole, favours compounds with a hit. Of some 79,000 tested, about 15% had one in any assay. Calls of active or inactive are those of the source. Rule as the data show it: active = growth inhibition above about 70%; inactive = the rest.
Labels: yes (1) = active, no (0) = inactive

INSERT INTO assay_data (compound, label_class) VALUES
  ('CCC/C(Cl)=N/OC(=O)Nc1cc(C(F)(F)F)ccc1OC', 'no (0)'),
  ('CN(C)c1ccc(/C=C/c2nc3ccc(Cl)cc3[nH]2)cc1', 'no (0)'),
  ('CCOC(=O)[C@H]1C(CC)=NOC1C (some centres undefined)', 'no (0)'),
  ('CC1(C)OC(=O)C=C([O-])O1.CC1(C)OC(=O)C=C([O-])O1.CC[O-].CC[O-].[Ti+4]', 'no (0)'),
  ('O=Nc1ccc(Cl)cc1', 'no (0)'),
  ('CCCC1=C(c2ccc(OC)cc2)Cc2cc(OC)ccc21', 'no (0)'),
  ('COc1ccc(OC)c2c(NCCNCCO)cc(NCCNCCO)nc12', 'no (0)'),
  ('Cc1ccc2c(c1)[nH]c(=S)n2/C=C(\c1ccccc1)S(=O)Cc1ccccc1 (centres undefined)', 'no (0)'),
  ('Nc1ccc(CCCCOc2ccccc2)cc1', 'yes (1)'),
  ('Cc1nc(N)[nH]c(=O)c1-n1nnc2ccccc2c1=O', 'no (0)'),
  ('CN/N=C(/c1nc2ccc([N+](=O)[O-])cc2[nH]c1=O)C(O)c1ccc(C(O)/C(=N\NC)c2nc3ccc([N+](=O)[O-])cc3[nH]c2=O)cc1 (centres undefined)', 'no (0)'),
  ('CCOC(CN(C)C)OCC', 'no (0)'),
  ('Cc1ccc2c(c1)C(=Nc1ccc(Cl)cc1)C(=O)N2', 'no (0)'),
  ('COc1cccc2c(=O)oc(-c3ccc(C(C)(C)C)cc3)nc12', 'no (0)'),
  ('Cn1c(=O)c2cc(O)cnc2n(C)c1=O', 'no (0)'),
  ('CC1CC(=O)Nc2ncccc2N1 (centres undefined)', 'no (0)'),
  ('COc1ccc2c(c1)N=C(NNC1=Nc3cc(OC)ccc3SC1)CS2', 'no (0)'),
  ('CC(=O)Nc1c(Nc2ccccc2)[nH]c(C)nc1=S', 'no (0)'),
  ('CCOC(=O)NC(NC(=O)OCC)c1ccc2c(c1)OCO2', 'no (0)');

====

# EXPERIMENTAL_DETAILS: NCI Yeast Anticancer Drug Screen. Data for the rad50 strain (AID 155);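 further: 0% = growth of vehicle-only cultures of the same strain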
# CONDITION_LABEL: S. cerevisiae rad50 strain growth inhibition; at 50.0 µM; hits give high values
The panel holds about 79,000 compounds, 15% with a hit somewhere; the sample as a whole holds those more often. Active and inactive are the calls of the source. Cut-off read from the data, not from the text of the source: active = growth inhibition above about 70%; inactive = the rest.
OUTCOME_MEASURE: growth inhibition

INSERT INTO results (compound, outcome_measure, result_value) VALUES
  ('COC(=O)c1nn(-c2ccccc2)c2nc3ccccc3c-2c1C(=O)OC', 'growth inhibition', '39.8% (inactive)'),
  ('Nc1ccn(C2OC(COC(=O)C34CC5CC(CC(C5)C3)C4)C(O)C2O)c(=O)n1 (stereo not drawn)', 'growth inhibition', '-14.5% (inactive)'),
  ('CCN(CC)CCOc1cccc(Oc2ccccc2)c1', 'growth inhibition', '74% (active)'),
  ('O=S(=O)(Nc1c(Cl)c(Cl)c(NS(=O)(=O)c2ccccc2)c(Cl)c1Cl)c1ccccc1', 'growth inhibition', '46.2% (inactive)'),
  ('COc1ccc(C2CC2c2ccc(C#N)cc2)cc1 (stereo not drawn)', 'growth inhibition', '7.05% (inactive)'),
  ('Cc1ccc(CS(=O)(=O)c2ccc(C)cc2)cc1', 'growth inhibition', '-3.3% (inactive)'),
  ('CCOC(=O)CC1CCC(CCCCC2CCC(CC(=O)OCC)CC2)CC1 (stereo not drawn)', 'growth inhibition', '76% (active)'),
  ('Cc1csc2n(C)c(=O)c3ccccc3[n+]12', 'growth inhibition', '16.8% (inactive)');

Numbers sourced from PubChem BioAssay (NCI).
